target: μ-opioid receptor (Mus musculus); construct: performed on mouse brain homogenates in the presence of ^3H-DAMGO for μ-receptor; from tissue; host or cells: mouse brain membranes / homogenates; assay: biochemical; type: binding
Sequence (P42866 whole entry): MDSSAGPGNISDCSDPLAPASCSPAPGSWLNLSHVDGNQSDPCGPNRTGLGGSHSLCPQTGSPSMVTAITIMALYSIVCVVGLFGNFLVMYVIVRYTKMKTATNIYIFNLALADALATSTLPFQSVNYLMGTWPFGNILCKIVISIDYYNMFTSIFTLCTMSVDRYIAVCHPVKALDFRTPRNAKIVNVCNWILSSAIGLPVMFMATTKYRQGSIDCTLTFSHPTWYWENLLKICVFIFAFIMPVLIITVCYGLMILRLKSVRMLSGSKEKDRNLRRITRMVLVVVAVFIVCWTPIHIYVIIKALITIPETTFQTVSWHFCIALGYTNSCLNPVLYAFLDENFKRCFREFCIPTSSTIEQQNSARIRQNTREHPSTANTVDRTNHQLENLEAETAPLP
Reported values of pKi for individual entries
Bear in mind: pKi is minus log10 of a mol/L concentration; give just that figure.

Record excerpt, results attached:
> print(dat)
                               input.smiles  quantity.measured  numeric.readout
1    CCC(=O)N1C2CCC3C1CCC2N3Cc1ccc2ccccc2n1                pKi             6.31
2  CCC(=O)N1C2CCC3C1CCC2N3Cc1cc2ccccc2[nH]1                pKi             6.30

--- query ---
Which measured pKi value corresponds to CCC(=O)N1C2CCC1C1CCC2N1Cc1cc2ccccc2[nH]1 ?
7.66

* * *

Structures can show the parent of a compound that is named as a salt.
quantity_measured: melting point

> print(dat)
                                   compound         result
1  CCC(=O)N1C2CCC1C1CCC2N1CC=C1CCc2cc(F)ccc21 (as salt: hydrochloride)  181 to 183 °C

Which measured melting point value corresponds to CCC(=O)N1C2CCC1C1CCC2N1CC=C1CCc2cc(Br)ccc21 (as salt: hydrochloride) ?
167 to 170 °C

Which measured melting point value corresponds to CCC(=O)N1C2CCC1C1CCC2N1CC=C1CCc2cc(Cl)ccc21 (as salt: hydrochloride) ?
170 to 173 °C

Which measured melting point value corresponds to CCC(=O)N1C2CCC3C1CCC2N3CC=C1CCc2cc(Br)ccc21 (as salt: hydrochloride) ?
177 to 179 °C

Which measured melting point value corresponds to CCC(=O)N1C2CCC1C1CCC2N1Cc1cc2ccccc2[nH]1 (as salt: hydrochloride) ?
106 °C

Which measured melting point value corresponds to CCC(=O)N1C2CCC3C1CCC2N3CC=C1CCc2ccccc21 (as salt: hydrochloride) ?
167 to 170 °C

Which measured melting point value corresponds to CCC(=O)N1C2CCC1C1CCC2N1Cc1cnc2ccccc2n1 (as salt: hydrochloride) ?
128 °C

* * *

Where a name gives a salt, the structure may show the parent alone.
Reported values of melting point for individual entries

Record excerpt, results attached:
> print(dat)
                                   compound         result
1  CCC(=O)N1C2CCC1C1CCC2N1CC=C1CCc2ccccc21 (as salt: hydrochloride)  132 to 134 °C
2  CCC(=O)N1C2CCC3C1CCC2N3CC=C1CCc2cc(F)ccc21 (as salt: hydrochloride)  131 to 133 °C
3  CCC(=O)N1C2CCC3C1CCC2N3CC=C1CCc2cc(Cl)ccc21 (as salt: hydrochloride)  179 to 181 °C

--- query ---
Which measured melting point value corresponds to CCC(=O)N1C2CCC3C1CCC2N3Cc1cc2ccccc2[nH]1 (as salt: hydrochloride) ?
54 °C
